Ref: patent US20210261671A1

I'd be grateful if you could share measured FLT3/control for these entries.
measured_target: T1, human FLT3 protein (human, UniProt P36888 27-541, limits assumed)
T1 construct: protein coated in the screening ELISA; also called ELISA FLT3
experimental_protocol: colorimetric ELISA, signal over control wells lacking FLT3
Numbers only, in ratio.

Previously resolved entries follow.
binder="FLL1 (VHH, llama anti-FLT3 variable domain; E. coli periplasmic extract) VHH: QVQLQESGGGLVQAGGSLRLSCAASGRTFSTLTVAWFRQAPGKEREFVVASIPSGSNTGYAESVKGRFTISRDIAKNTVYLQMNSLKPEDTAMYFCAARIYFGSSRGYDYWGQGTQVTVSS" measured_attribute=FLT3/control measured_value=11
binder="FLL168 (VHH, llama anti-FLT3 variable domain; E. coli periplasmic extract) VHH: QVQLQESGGGSVQAGGSLRLSCAFSGRTFSGFGTGWFRQAPEKEREFVAAISWDGGRTHYADSVKGRFTISRDNAKNTVYLQMDSLKPEDTAIYYCAAQVSRAYDGRWYSAVDYWGRGTQVTVSS" measured_attribute=FLT3/control measured_value=28
binder="FLL79 (VHH, llama anti-FLT3 variable domain; E. coli periplasmic extract) VHH: QVQLQESGGGLVQAGGSLRLSCSASGSTFSRNYIDWYRQAPGKQREWVAQITSGGNTHYEPSLKGRFTISRDNAKNTAYLQMNSLKPEDTAVYYCRILDYWGQGTQVTVSS" measured_attribute=FLT3/control measured_value=4
binder="FLL55 (VHH, llama anti-FLT3 variable domain; E. coli periplasmic extract) VHH: QVQLQESGGGLVQAGGSLRLSCAASGSTFSRNYIDWYRQAPGKQREWVAQITSAGNTHYEPSLKGRFTISRDNAKNTAYLQMNSLKPEDTAVYYCRILDYWGQGTQVTVSS" measured_attribute=FLT3/control measured_value=6
binder="FLL83 (VHH, llama anti-FLT3 variable domain; E. coli periplasmic extract) VHH: QVQLQESGGGLVQAGGSLRLSCAVSGRTFSGFGTGWFRQAPGKEREFVAAISWSGGTTHYADSVKGRFTISRDNAENTVYLEMNSLKPEDTAVYICAGQVSRAYDSNWYSRDDYWGQGTQVTVSS" measured_attribute=FLT3/control measured_value=35

Recorded result, FLL45 (VHH, llama anti-FLT3 variable domain; E. coli periplasmic extract) VHH: QVQLQESGGGLVQAGGSLRLSCAASGGTFSSSAMGWFRQAPGKEREFVATITQNDVPTYYTHSVKGRFTISRDNAKNTMYLQMNSLKPEDTAVYYCAQRVAQASGWRTTIKDYGYWGQGTQVTVSS , FLT3/control: 28
